Data provenance is patent US20090062401A1.

This listing pairs molecules with measured pIC50.
- measured_target: 11beta-HSD2 (Homo sapiens, UniProt P80365)
- Sequence (P80365 1-405): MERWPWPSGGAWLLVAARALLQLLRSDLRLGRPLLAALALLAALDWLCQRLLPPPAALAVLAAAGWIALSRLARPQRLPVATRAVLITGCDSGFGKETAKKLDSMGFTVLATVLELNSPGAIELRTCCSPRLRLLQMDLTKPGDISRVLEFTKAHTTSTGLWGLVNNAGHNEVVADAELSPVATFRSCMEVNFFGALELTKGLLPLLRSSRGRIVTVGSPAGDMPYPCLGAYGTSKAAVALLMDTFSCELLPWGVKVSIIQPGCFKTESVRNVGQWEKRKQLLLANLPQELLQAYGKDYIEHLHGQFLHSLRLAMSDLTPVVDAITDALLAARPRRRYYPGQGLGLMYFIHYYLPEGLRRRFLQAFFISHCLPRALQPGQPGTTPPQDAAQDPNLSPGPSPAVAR
pIC50: −log10 of the molar value.

{"molecule": "CCc1cc(OC)ccc1/C=C1\\C[C@@]2(C)C(=C(C)C1=O)CCC[C@@H]2O", "pIC50": "4.30 to 5.00"}
{"molecule": "C/C=C/C=C1\\C[C@@]2(C)C(=C(C)C1=O)CCC[C@@H]2O", "pIC50": "> 5.00"}
{"molecule": "CC(=O)Oc1ccc(/C=C2\\C[C@@]3(C)C(=C(C)C2=O)CCC[C@@H]3O)cc1", "pIC50": "4.30 to 5.00"}
{"molecule": "O=C1C(=Cc2ccco2)CCC2CC=CCC12 (centres unmarked)", "pIC50": "> 5.00"}
{"molecule": "CCC/C=C1\\C[C@@]2(C)C(=C(C)C1=O)CCC[C@@H]2O", "pIC50": "> 5.00"}

###

- measured_target: PTP1B (Homo sapiens)
- Sequence (P18031 1-435): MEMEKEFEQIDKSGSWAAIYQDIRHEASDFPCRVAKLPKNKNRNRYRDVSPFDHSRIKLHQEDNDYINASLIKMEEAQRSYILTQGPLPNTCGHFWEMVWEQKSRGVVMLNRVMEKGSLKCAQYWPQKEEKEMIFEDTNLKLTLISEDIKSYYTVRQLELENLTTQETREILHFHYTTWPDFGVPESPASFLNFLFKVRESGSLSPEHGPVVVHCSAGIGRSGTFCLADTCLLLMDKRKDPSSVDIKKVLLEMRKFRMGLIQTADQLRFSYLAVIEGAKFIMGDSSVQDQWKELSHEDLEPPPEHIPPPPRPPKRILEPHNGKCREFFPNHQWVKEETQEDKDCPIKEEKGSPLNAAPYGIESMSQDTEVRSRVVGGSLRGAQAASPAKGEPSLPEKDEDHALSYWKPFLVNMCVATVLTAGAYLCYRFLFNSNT
- protocol_details: PTP1B phosphatase inhibition, general phosphatase assay using para-nitrophenylphosphate
- Assay type: biochemical

{"smiles_text": "CC1=C2CCC[C@H](O)[C@@]2(C)C/C(=C\\c2ccc(C#C[Si](C)(C)C)cc2)C1=O", "IC50": "10 to 50 µM"}

###

This listing pairs molecules with measured IC50.
- measured_target: Cdc25A (Homo sapiens)
- Sequence (P30304 whole entry): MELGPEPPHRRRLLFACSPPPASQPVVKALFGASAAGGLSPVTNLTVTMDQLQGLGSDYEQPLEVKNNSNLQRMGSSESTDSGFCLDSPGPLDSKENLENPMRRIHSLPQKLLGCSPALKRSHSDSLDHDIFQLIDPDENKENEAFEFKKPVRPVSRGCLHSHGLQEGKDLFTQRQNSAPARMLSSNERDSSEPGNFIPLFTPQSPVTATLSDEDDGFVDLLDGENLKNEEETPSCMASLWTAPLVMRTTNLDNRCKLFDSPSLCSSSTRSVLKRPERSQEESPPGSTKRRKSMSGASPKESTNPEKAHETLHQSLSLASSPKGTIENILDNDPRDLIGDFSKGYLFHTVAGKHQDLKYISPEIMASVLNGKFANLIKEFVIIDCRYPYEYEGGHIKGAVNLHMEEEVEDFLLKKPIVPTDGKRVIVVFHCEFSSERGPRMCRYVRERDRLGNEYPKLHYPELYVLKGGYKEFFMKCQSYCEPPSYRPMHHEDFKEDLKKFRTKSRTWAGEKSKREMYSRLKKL
- protocol_details: Cdc25A phosphatase inhibition
- Assay type: biochemical
- condition_notes: read-out: IC50 Target Cdc25A
- Text: Assay protocols for Cdc25A, 11βHSD1, 11βHSD2, and AChE are described in detain in the publication of Koch M A, Wittenberg L O, Basu S, Jeyaraj D A, Gourzoulidou E, Reinecke K, Odermatt A, Waldmann H (Proc. Natl. Acad. Sci. U.S.A. 2004 Nov. 30; 101(48):16721-6) and in Koch M A et al., Proc. Natl. Acad. Sci. U.S.A. 2005 Nov. 29; 102 (48):17272-7.

{"molecule": "CC1C(=O)/C(=C/c2cccn2C)C[C@@]2(C)C1CCC[C@@H]2O (stereo partly shown) [Compound 86]", "IC50": "10 to 50 µM"}
{"molecule": "CC1=C2CCC[C@H](O)[C@@]2(C)C/C(=C\\c2ccc(C#Cc3cccc(F)c3)cc2)C1=O [Compound 49]", "IC50": "< 10 µM"}
{"molecule": "CC1=C2CCCC(O)C2(C)CC(=Cc2ccc(C#CCCCC#N)cc2)C1=O (stereo not shown) [Compound 47]", "IC50": "10 to 50 µM"}
{"molecule": "C[C@]12C/C(=C\\c3ccc(C#CC4(O)CCCCC4)cc3)C(=O)C=C1CCC[C@@H]2O [Compound 138]", "IC50": "< 10 µM"}
{"molecule": "CC1=C2CCC[C@H](O)[C@@]2(C)C/C(=C\\c2ccoc2)C1=O [Compound 8]", "IC50": "10 to 50 µM"}
{"molecule": "CCCCC#Cc1ccc(/C=C2\\C[C@@]3(C)C(=C(C)C2=O)CCC[C@@H]3O)cc1 [Compound 40]", "IC50": "10 to 50 µM"}
{"molecule": "CC1=C2CCCC3(OCCO3)C2(C)CC/C1=C1/C=CC(=O)O1 (stereo not shown) [Compound 415]", "IC50": "10 to 50 µM"}
{"molecule": "C=CC[C@]12C(CCC[C@@H]1O)C(C)C(=O)/C(=C/c1cccc(C#CCOC)c1)[C@@H]2C (stereo partly shown) [Compound 349]", "IC50": "10 to 50 µM"}
{"molecule": "CC1=C2CCCC(=O)[C@@]2(C)CC/C1=C1/C=CC(=O)O1 [Compound 401]", "IC50": "10 to 50 µM"}
{"molecule": "CC1C=CCC2CCC(=Cc3ccco3)C(=O)C12 (stereo not shown) [Compound 394]", "IC50": "10 to 50 µM"}
{"molecule": "CC1(Cc2cccc(I)c2)C(=O)CC[C@@]2(C)C1CCC[C@@H]2O (stereo partly shown) [Compound 398]", "IC50": "10 to 50 µM"}
{"molecule": "CCOC(C#Cc1ccc(/C=C2\\C[C@@]3(C)C(=C(C)C2=O)CCC[C@@H]3O)cc1)OCC [Compound 46]", "IC50": "< 10 µM"}
{"molecule": "C#CCCCCCC#Cc1ccc(/C=C2\\C[C@@]3(C)C(=C(C)C2=O)CCC[C@@H]3O)cc1 [Compound 42]", "IC50": "< 10 µM"}
{"molecule": "CC1=C2CCC[C@H](O)[C@@]2(C)C/C(=C\\c2ccc(C#CCCO)cc2)C1=O [Compound 55]", "IC50": "< 10 µM"}
{"molecule": "CC1=C2CCC[C@H](O)[C@@]2(C)C/C(=C\\c2ccc(C#CC(C)OC(C)(C)C)cc2)C1=O (stereo partly shown) [Compound 38]", "IC50": "< 10 µM"}
{"molecule": "CC1(CCCc2ccccc2)C(=O)CC[C@@]2(C)C1CCC[C@@H]2O (stereo partly shown) [Compound 397]", "IC50": "10 to 50 µM"}
{"molecule": "CCCCCCC#Cc1ccccc1/C=C1\\CCC2C(C)C(O)CC[C@]2(C)C1NC1CCCCC1 (stereo partly shown) [Compound 323]", "IC50": "10 to 50 µM"}
{"molecule": "CC1=C2CCC[C@H](O)[C@@]2(C)C/C(=C\\c2ccc(C#CCN(C)C)cc2)C1=O [Compound 51]", "IC50": "< 10 µM"}
{"molecule": "CC1=C2CCC[C@H](O)[C@@]2(C)C/C(=C\\c2cc3ccccc3o2)C1=O [Compound 4]", "IC50": "10 to 50 µM"}
{"molecule": "C=CC[C@@]12C(=CC(=O)/C(=C/c3ccccc3C#CCCCCCCCCCCCCCC)[C@@H]1C)CCC[C@@H]2O [Compound 326]", "IC50": "10 to 50 µM"}
{"molecule": "C=C(C)C#Cc1ccc(/C=C2\\C[C@@]3(C)C(=C(C)C2=O)CCC[C@@H]3O)cc1 [Compound 71]", "IC50": "10 to 50 µM"}
{"molecule": "CC1=C2CCC[C@H](O)[C@@]2(C)C/C(=C\\C=C\\c2ccco2)C1=O [Compound 60]", "IC50": "10 to 50 µM"}
{"molecule": "CC1=C2CCC[C@H](O)[C@@]2(C)C/C(=C\\c2ccc(C#CCCCc3ccccc3)cc2)C1=O [Compound 72]", "IC50": "10 to 50 µM"}
{"molecule": "CCCCCCC#Cc1ccc(/C=C2\\C[C@@]3(C)C(=C(C)C2=O)CCC[C@@H]3O)cc1 [Compound 91]", "IC50": "< 10 µM"}
{"molecule": "COCC#Cc1ccccc1/C=C1\\C[C@@]2(C)C(=CC1=O)CCC[C@@H]2O [Compound 334]", "IC50": "10 to 50 µM"}

###

This listing pairs compounds with measured pIC50.
- measured_target: AChE (Homo sapiens, UniProt P22303)
- Sequence (P22303 32-614): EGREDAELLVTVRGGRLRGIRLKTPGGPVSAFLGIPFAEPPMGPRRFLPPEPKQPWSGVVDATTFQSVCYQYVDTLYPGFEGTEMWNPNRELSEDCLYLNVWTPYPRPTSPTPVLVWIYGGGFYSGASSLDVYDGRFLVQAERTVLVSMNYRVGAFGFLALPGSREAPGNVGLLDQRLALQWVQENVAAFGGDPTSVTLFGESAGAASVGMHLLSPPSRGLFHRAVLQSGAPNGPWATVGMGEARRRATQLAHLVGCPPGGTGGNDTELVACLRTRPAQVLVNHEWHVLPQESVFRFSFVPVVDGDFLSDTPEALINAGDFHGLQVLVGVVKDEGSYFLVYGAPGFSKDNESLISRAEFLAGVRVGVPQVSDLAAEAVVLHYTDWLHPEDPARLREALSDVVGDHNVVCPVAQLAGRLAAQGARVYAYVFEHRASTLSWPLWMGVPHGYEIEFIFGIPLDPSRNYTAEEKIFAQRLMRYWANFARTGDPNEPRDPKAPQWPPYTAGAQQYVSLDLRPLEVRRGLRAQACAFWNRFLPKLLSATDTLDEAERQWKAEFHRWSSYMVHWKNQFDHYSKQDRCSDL
- protocol_details: Acetylcholinesterase inhibition
- Type: biochemical
- condition_notes: read-out: IC50 Target AChE
- Excerpt: Assay protocols for Cdc25A, 11βHSD1, 11βHSD2, and AChE are described in detain in the publication of Koch M A, Wittenberg L O, Basu S, Jeyaraj D A, Gourzoulidou E, Reinecke K, Odermatt A, Waldmann H (Proc. Natl. Acad. Sci. U.S.A. 2004 Nov. 30; 101(48):16721-6) and in Koch M A et al., Proc. Natl. Acad. Sci. U.S.A. 2005 Nov. 29; 102 (48):17272-7.
pIC50: −log10 of the molar value.

{"compound": "CC1=C2CC(c3ccccc3)CC(O)C2CCC1=O (centres unmarked) [Compound 167]", "pIC50": "> 5.00"}
{"compound": "CC(=O)Oc1ccc(/C=C2\\C[C@@]3(C)C(=C(C)C2=O)CCC[C@@H]3O)cc1 [Compound 31]", "pIC50": "> 5.00"}
